# TEST_SYSTEM: DLG1_3, Q12959
# Sequence (Q12959 457-571): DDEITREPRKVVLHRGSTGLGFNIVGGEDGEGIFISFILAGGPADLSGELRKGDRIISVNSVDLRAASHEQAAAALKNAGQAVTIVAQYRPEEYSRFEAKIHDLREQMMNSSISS
# EXPERIMENT_SUMMARY: holdup assay
# Design: key: below the threshold = too weak to quantify, mostly under pKd 3.1 to 4
# CONDITION_LABEL: plain residues with an end cap or a label only (N-terminal biotin on a linker: ado-ado)
MEASUREMENT_LABEL: pKd
Lab note: record the figure alone, no unit after it.

Examples with their reported pKd follow.
TNSRHGETTV [FZD2, Q14332]	4.14
NVYGIESVKI [GRIA2, P42262]	3.93
EIPAQSPTCV [FZD10, Q9ULW2]	4
LESTTVGTSV [KARS1, Q15046]	3.78
VLYPREGTEV [FOXI1, Q12951]	3.75
KSRVAFFEEL [NF2, P35240]	3.82
RFQQRMQTHV [KIRREL1, Q96J84]	3.68

We now examine a further binder.
# pKd (binder: SLNANEVEWF [RNF130, Q86XS8] ) is 3.64

These measurements were taken from paper PMC9482650.
